Cited source for all entries: ChEMBL document CHEMBL1152363

assay: Metabolic stability in rat liver microsomes assessed as turnover after 60 mins; type: ADME, Microsome; conditions: read-out: Stability
parameter measured: metabolised at 1 h (%)
Write the number in % without appending the unit.

Enquiry: For N[C@@H](CC(=O)N1CCC[C@H]1CNC(=O)c1ccccc1)Cc1ccccc1F , what is its reported metabolised at 1 h?
Return: 76
